system: Human immunodeficiency virus 1; assay: Effective concentration of against HIV Wild Type (IIIB) strain; format: functional, organism-based; conditions: Human immunodeficiency virus 1
Quantity kind: pEC50
On this scale, pEC50 is minus log10 of a concentration expressed in M (mol/L).

- CC(C)CN(C[C@@H](O)[C@H](Cc1ccccc1)NC(=O)O[C@H]1CO[C@@H]2OCC[C@@H]21)S(=O)(=O)c1ccc(N)cc1: 6.51
- COc1ccc(S(=O)(=O)N(CC(C)C)C[C@@H](O)[C@H](Cc2ccccc2)NC(=O)O[C@H]2CO[C@H]3OCC[C@H]32)cc1: 9.23

Under Human immunodeficiency virus 1: pEC50 value of "CC(C)CN(C[C@@H](O)[C@H](Cc1ccccc1)NC(=O)O[C@H]1CO[C@H]2OCC[C@H]21)S(=O)(=O)c1cccc(N)c1" ?
8.36
